Target: K-Ras G12C (Homo sapiens, UniProt P01116, G12C)
Construct: This protein contained 188 amino acids in total, including an N-terminal 6-Histidine tag; made in house; host or cells: E. coli BL21
Test: CAF assay (% CAF; method in Example 7, not in this part)
Type: binding
Conditions: 10 uM, 1 h; Table 3
Quick list: % CAF @ 10 uM, 1h per entry.
Please respond with the number in % and leave the unit unwritten.

% CAF @ 10 uM, 1h for `C[C@H]1CN(C(=O)/C=C/C(F)(F)F)CCN1c1nc(=O)n2c3c(c(-c4cc(F)cc(Cl)c4)c(Cl)cc13)SCC2` is 3

% CAF @ 10 uM, 1h for `C=CC(=O)N1CCN(c2nc(=O)n3c4c(c(-c5ccc(F)cc5F)c(Cl)cc24)[S@+]([O-])CC3)[C@@H](C)C1` is 62.4

% CAF @ 10 uM, 1h for `C[C@H]1CN(C(=O)/C=C/C(F)F)CCN1c1nc(=O)n2c3c(c(-c4ccc(Cl)c(F)c4)c(Cl)cc13)SCC2` is 93.5
